System: Caetomium globosum ATCC 6205
test protocol: Test on fungicidal effect on fungi (agar medium diluting method)
Type: cell-based
applied conditions: PDA, 27° C., cultivation period 3 days (compound 18: 4 days)
endpoint name: Minimum inhibitory concentration

Q: For the molecule CC[CH2][Sn]([CH2]CC)([CH2]CC)[S]CCC[Si]12OCCN(CCO1)CCO2 , what Minimum inhibitory concentration is on record?
Ans: < 2.5 ppm

Q: For the molecule CC[CH2][Sn]([CH2]CC)([CH2]CC)[S]CCC[Si]12OC(C)CN(CC(C)O1)CC(C)O2 (centres unmarked) , what Minimum inhibitory concentration is on record?
Ans: < 12.5 ppm

Q: For the molecule CC[CH2][Sn]([CH2]CC)([CH2]CC)[S]CCC[Si]12OCCN(CC(CC)O1)CC(CC)O2 (centres unmarked) , what Minimum inhibitory concentration is on record?
Ans: < 2.5 ppm

Q: For the molecule CC(C)[CH2][Sn]([CH2]C(C)C)([CH2]C(C)C)[S]CCC[Si]12OC(C)CN(CC(C)O1)CC(C)O2 (centres unmarked) , what Minimum inhibitory concentration is on record?
Ans: < 12.5 ppm

Q: For the molecule CCC[CH2][Sn]([CH2]CCC)([CH2]CCC)[S]CCC[Si]12OC(C)CN(CC(C)O1)CC(C)O2 (centres unmarked) , what Minimum inhibitory concentration is on record?
Ans: < 12.5 ppm

Q: For the molecule CCC[CH2][Sn]([CH2]CCC)([CH2]CCC)[S]CCC[Si]12OCCN(CCO1)CC(C)O2 (centres unmarked) , what Minimum inhibitory concentration is on record?
Ans: < 12.5 ppm

Q: For the molecule CCC1CN2CC(C)O[Si](CCC[S][Sn]([c]3ccccc3)([c]3ccccc3)[c]3ccccc3)(OC(C)C2)O1 (centres unmarked) , what Minimum inhibitory concentration is on record?
Ans: < 12.5 ppm

Q: For the molecule CC(C)[CH2][Sn]([CH2]C(C)C)([CH2]C(C)C)[S]CCC[Si]12OCCN(CCO1)CCO2 , what Minimum inhibitory concentration is on record?
Ans: < 12.5 ppm
